Hello, the source for this data is patent US7074780B2, in case you need it.

Listing: IC50 of selected molecules
# Test system: adenosine-uptake system
# PROTOCOL: Inhibition of the adenosine uptake in rabbit erythrocytes
# Assay type: cell-based
# CONDITION_SET: Oryctolagus cuniculus, 0.25 h; rabbit erythrocyte preparation; concentration at which 50% of the adenosine originally employed is still present 15 min after addition of adenosine; 30° C.; read-out: IC50 (inhibition of functional adenosine uptake)
I only need the number, in µM, no unit after it.

Consider the worked cases shown below.
| MOLECULE | EXPERIMENTAL_READOUT | MEASURED |
| --- | --- | --- |
| CCN(CCO)C(=O)N(Cc1ccc([C@@H]2CCCC[C@H]2C(=O)N[C@H](C(N)=O)c2ccc(F)cc2)cc1)c1ccc(F)cc1 [Example 2-1] | IC50 | 0.02 |
| CCN(CCO)C(=O)N(Cc1ccc([C@@H]2CCCC[C@H]2C(=O)N[C@H](C(N)=O)c2ccccc2)cc1)c1ccccc1 [Example 2-18] | IC50 | 0.02 |
| CCN(CC)C(=O)N(Cc1ccc([C@@H]2CCCC[C@H]2C(=O)N[C@H](C(N)=O)c2ccccc2)cc1)c1ccccn1 [Example 1-33] | IC50 | 0.04 |
| CN(C)C(=O)N(Cc1ccc([C@@H]2CCCC[C@H]2C(=O)N[C@H](C(N)=O)c2ccccc2)cc1)c1ccccc1 [Example 1-3] | IC50 | 0.02 |
| CN(C)C(=O)N(Cc1ccc([C@@H]2CCCC[C@H]2C(=O)N[C@H](C(N)=O)c2ccccc2)cc1)C1CC1 [Example 1-14] | IC50 | 0.03 |

Now examine the next entry.
Task: Recorded IC50 of NC(=O)[C@@H](NC(=O)[C@@H]1CCCC[C@H]1c1ccc(CN(C(=O)N2CCOCC2)c2ccccc2)cc1)c1ccccc1 [Example 1-1] , please.
Output: 0.03
